# System: MOLT-4
# Assay Procedure: NCI tumour cell line growth inhibition, 48 h
The source made the active and inactive calls. Cut-off read from the data, not from the text of the source: active = GI50 up to about 1.1 µM and inactive = higher.
Readings of GI50 for the listed compounds

CC1=C(C)SC(=C2Sc3c(n(C)c(=O)n(C)c3=O)S2)S1; > 100 µM (inactive)
COc1ccc(C(=O)N2CCN(c3ccc4c(c3)OCC(=O)N4)CC2)cc1; > 100 µM (inactive)
CCN(CC)C(=S)SNCc1ccc(S(N)(=O)=O)cc1; 8.97 µM (inactive)
Cc1cccc2c1C(=O)C1(Cc3ccccc3C1=O)C2 (stereo unspecified); 91.2 µM (inactive)
Nc1cc(C(=O)O)nc(O)n1; > 100 µM (inactive)

Query: Supply GI50 value. Item: Cc1ccc(Oc2cc(C)ccc2P(=O)(O)O)cc1
Reply: > 100 µM (inactive)

Query: Supply GI50 value. Item: COc1cc(-c2ccc(/N=N/c3ccc4c(S(=O)(=O)O)cc(S(=O)(=O)O)c(N)c4c3O)c(OC)c2)ccc1/N=N/c1ccc2c(S(=O)(=O)O)cc(S(=O)(=O)O)c(N)c2c1O
Reply: > 100 µM (inactive)

Query: Supply GI50 value. Item: CC(=O)NC(CCCN(Cc1ccccc1)C(=O)N(CCCl)N=O)C(=O)NCc1ccccc1 (stereo unspecified)
Reply: 9.4 µM (inactive)

Query: Supply GI50 value. Item: O=c1c(Cc2ccc(Cc3c(O)oc4ccccc4c3=O)cc2)c(O)oc2ccccc12
Reply: > 100 µM (inactive)

Query: Supply GI50 value. Item: COC1OC(=O)C(OC)C(OC)C1OC (stereo unspecified)
Reply: > 100 µM (inactive)

Query: Supply GI50 value. Item: CCC(CCCC[C@H]1CC[C@@H]2CC(=O)C[C@H]12)OC (stereo partly specified)
Reply: > 100 µM (inactive)

---

# Test system: HCT-116
# Assay Procedure: NCI tumour cell line growth inhibition, 48 h
Activity calls are given as the source filed them. Rule as the data show it: active = GI50 up to about 1.1 µM and inactive = higher.
Write down the outcome that applies. Available outcomes: active, inactive

Take a look at these entries with their results.
CC(=O)NC(CCCN(Cc1ccccc1)C(=O)N(CCCl)N=O)C(=O)NCc1ccccc1 (stereo not given); inactive
CCCCCCCCCCCCCCNCC(OC)OC; inactive
C=CCOC(=O)/C(=C\c1ccc(OC)c(OC)c1)c1ccc(OC)c(OC)c1; inactive

Query: What did the test return for Nc1nc(Cl)c(CO)c(NCC2(CO)CCC2)n1 ?
Reply: inactive

Query: What did the test return for NC(=S)NS(=O)(=O)c1ccc(F)cc1 ?
Reply: inactive

---

# Test system: UO-31
# Assay Procedure: NCI tumour cell line growth inhibition, 48 h
Active and inactive are the calls of the source. No stated cut-off is given here; in the data, active = GI50 up to about 1.1 µM and inactive = higher.
Readout Name: GI50

// known answers, use as guide
O=C(O)Cc1ccc(Oc2nc3ccccc3nc2C(=O)O)cc1; > 100 µM (inactive)
c1ccc(CN(Cc2ccccn2)Cn2cccn2)nc1; 79.6 µM (inactive)
Cc1cc(C2CCCCC2)n(O)c(=O)c1 [CICLOPIROX OLAMINE]; 6.32 µM (inactive)

Query: Supply GI50 value. Item: COc1cc(Br)cc2nc(-c3cccs3)oc12
Reply: > 54.7 µM (inactive)

Query: Supply GI50 value. Item: O=C(/C=C/c1ccc2ccccc2c1)NCc1ccc(C(=O)NCc2ccccc2)cc1
Reply: > 53.8 µM (inactive)

Query: Supply GI50 value. Item: CCOC(=O)C(=O)Nc1c(C)cccc1CC
Reply: > 100 µM (inactive)

Query: Supply GI50 value. Item: CC1=C(c2cc(C(=O)Nc3cccc(C(F)(F)F)c3)ncn2)Sc2ccccc2N1
Reply: > 100 µM (inactive)

Query: Supply GI50 value. Item: O=c1[nH]nc(-c2ccccc2)n1/N=C/c1cccnc1
Reply: > 100 µM (inactive)

Query: Supply GI50 value. Item: CCOC(=O)c1c(C)n(-c2ccc(Cl)cc2)c2c1cc(O)c1[nH]c3c(c12)CCCC3
Reply: > 100 µM (inactive)

Query: Supply GI50 value. Item: O=C1c2scc(-c3ccc(F)cc3)c2-n2cccc21
Reply: 8.99 µM (inactive)

Query: Supply GI50 value. Item: CCn1c(-c2ccc(/N=N/Nc3ccc(-c4n[nH]c(=S)n4CC)cc3)cc2)n[nH]c1=S
Reply: 2.33 µM (inactive)
